- Target System: GabaA
- Experimental Protocol: PDSP radioligand binding assay
- Condition: Table 10
Endpoint Label: Ki

Exercise: Name the recorded Ki of the item Clc1ccc(CSc2nnc(-c3ccccn3)n2Cc2ccco2)cc1Cl in your answer.
Key: > 10 µM

====

- Experimental Protocol: Plasma protein binding, mouse
- Type: in vitro ADME
- Condition: plasma; mouse, 1 μM; read-out: bound to plasma protein (converted)
Endpoint Label: fraction unbound at 1 μM

Exercise: Name the recorded fraction unbound at 1 μM of the item COc1ccc(N2CCN(CCCNC(=O)Cn3c(=O)c4cccn4c4c(C)ccnc43)CC2)cc1 [Compound 1{3}] in your answer.
Key: 0.115

====

Quick list: pIC50 per entry.
- Target System: MOR (Homo sapiens, UniProt P35372)
- Sequence (P35372 whole entry): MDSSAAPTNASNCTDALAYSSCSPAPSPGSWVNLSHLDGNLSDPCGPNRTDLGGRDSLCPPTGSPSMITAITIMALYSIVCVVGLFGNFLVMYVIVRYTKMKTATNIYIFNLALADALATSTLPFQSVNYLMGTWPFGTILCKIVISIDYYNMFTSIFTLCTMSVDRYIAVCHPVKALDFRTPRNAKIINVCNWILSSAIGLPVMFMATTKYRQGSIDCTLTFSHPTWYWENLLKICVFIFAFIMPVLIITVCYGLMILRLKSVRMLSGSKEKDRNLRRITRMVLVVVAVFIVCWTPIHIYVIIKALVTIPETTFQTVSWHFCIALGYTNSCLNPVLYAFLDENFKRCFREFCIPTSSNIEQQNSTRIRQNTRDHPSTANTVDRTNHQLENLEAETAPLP
- Experimental Protocol: High content imaging β-arrestin translocation assay, MOR antagonist (MOR HCS)
- Type: cell-based
- Condition: antagonist; average; read-out: Potency, Antitarget MOR HCS
By convention, pIC50 is the negative base-10 log of a molar concentration.

Record excerpt, results attached:
Molecule	Target System	pIC50
COc1ccc(N2CCN(CCCNC(=O)Cn3c(=O)c4cccn4c4c(C)ccnc43)CC2)c(OC)c1 [1{4}]	MOR (Homo sapiens, UniProt P35372)	4.51
Cc1ccnc2c1n1cccc1c(=O)n2CC(=O)NCCCN1CCN(c2ccc3c(c2)OCO3)CC1 [1{5}]	MOR (Homo sapiens, UniProt P35372)	4.76
COc1ccc(N2CCN(CCCNC(=O)Cn3c(=O)c4cccn4c4cccnc43)CC2)c(OC)c1 [1{9}]	MOR (Homo sapiens, UniProt P35372)	4.97
COc1ccc(N2CCN(CCCNC(=O)Cn3c(=O)c4cccn4c4cc(Br)cnc43)CC2)cc1 [1{14}]	MOR (Homo sapiens, UniProt P35372)	4.99

Exercise: Name the recorded pIC50 of the item O=C(Cn1c(=O)c2cccn2c2cc(Br)cnc21)NCCCN1CCN(c2ccc(Cl)cc2)CC1 [Compound 1{15}] in your answer.
Key: 5.27

Exercise: Name the recorded pIC50 of the item Cc1ccc(Cl)cc1N1CCN(CCCNC(=O)Cn2c(=O)c3cccn3c3cccnc32)CC1 [1{24}] in your answer.
Key: 5.40

====

- Target System: KOR (Homo sapiens)
- Experimental Protocol: High content imaging based β-arrestin translocation assay, KOR agonist (KOR HCS)
- Type: cell-based
- Condition: n = 2, read-out: Average Potency KOR HCS
pEC50: −log10 of the molar value.
Endpoint Label: pEC50

Record excerpt, results attached:
Compound	Endpoint Label	Reported Measurement
c1ccc(CSc2nnc(-c3ccccn3)n2Cc2ccco2)cc1 [Compound 2{22}]	pEC50	< 4.49
COc1cccc(CSc2nnc(-c3ccccn3)n2Cc2ccco2)c1 [Compound 2{37}]	pEC50	< 4.49
Cc1ccccc1CSc1nnc(-c2ccccn2)n1Cc1ccco1 [Compound 2{35}]	pEC50	< 4.52
CC(=O)Oc1ccc(CSc2nnc(-c3ccccn3)n2Cc2ccco2)cc1 [Compound 2{31}]	pEC50	< 4.49
Fc1cccc(F)c1CSc1nnc(-c2ccccn2)n1Cc1ccco1 [2{41}]	pEC50	< 4.49

Now let's try a different one.
Exercise: Name the recorded pEC50 of the item Fc1cc(F)cc(CSc2nnc(-c3ccccn3)n2Cc2cccs2)c1 [Compound 2{17}] in your answer.
Key: < 4.75

====

Quick list: pIC50 per entry.
- Target System: KOR (Homo sapiens, UniProt P41145)
- Sequence (P41145 whole entry): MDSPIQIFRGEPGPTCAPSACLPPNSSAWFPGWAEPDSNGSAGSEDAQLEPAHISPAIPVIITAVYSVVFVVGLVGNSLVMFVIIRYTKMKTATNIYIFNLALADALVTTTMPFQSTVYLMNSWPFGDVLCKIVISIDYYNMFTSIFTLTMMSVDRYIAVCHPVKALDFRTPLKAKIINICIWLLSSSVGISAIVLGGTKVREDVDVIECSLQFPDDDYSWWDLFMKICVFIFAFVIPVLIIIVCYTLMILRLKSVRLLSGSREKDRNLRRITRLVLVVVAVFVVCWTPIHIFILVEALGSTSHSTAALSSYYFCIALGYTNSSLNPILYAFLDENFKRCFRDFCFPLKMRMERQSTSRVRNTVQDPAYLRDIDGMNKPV
- Experimental Protocol: High content imaging β-arrestin translocation assay, KOR antagonist (KOR HCS)
- Assay type: cell-based
- Condition: antagonist; average; read-out: Potency, Target KOR HCS
pIC50: −log10 of the molar value.

Exercise: Name the recorded pIC50 of the item Cc1ccc(Cl)cc1N1CCN(CCCNC(=O)Cn2c(=O)c3cccn3c3cccnc32)CC1 in your answer.
Key: < 4.49

Exercise: Name the recorded pIC50 of the item O=C(Cn1c(=O)c2cccn2c2cc(Br)cnc21)NCCCN1CCN(c2ccc(Cl)cc2)CC1 in your answer.
Key: < 4.49

Exercise: Name the recorded pIC50 of the item O=C(Cn1c(=O)c2cccn2c2cccnc21)NCCCN1CCCCC1 in your answer.
Key: < 4.49

This collection of values is drawn from patent US9345703B2.
